MEASURED_ON: Serine/threonine-protein kinase mTOR (Homo sapiens)
METHOD_NOTES: Inhibition of mTOR kinase in human HeLa cells by ELISA
IC50 overview
Report the figure in nM without appending any unit label.

# example entries with known answers
COc1cc(/C=N/Nc2nc(N3CCOCC3)nc(N3CCOCC3)n2)cc(OC)c1O 270
COc1cc(-c2ccc(-c3ccnc(N4CCOCC4)n3)o2)cc(OC)c1O 52

// query Identify IC50 associated with the compound COc1cc(-c2ccc(-c3cc(N4CCOCC4)nc(N4CCOCC4)n3)o2)cc(OC)c1O
// result 23

// query Identify IC50 associated with the compound COc1cc(-c2csc(-c3ccnc(N4CCOCC4)n3)n2)cc(OC)c1O
// result 180

====

IC50 overview
MEASURED_ON: Phosphatidylinositol 4,5-bisphosphate 3-kinase catalytic subunit alpha isoform (Homo sapiens, UniProt P42336)
Sequence (P42336 whole entry, canonical isoform): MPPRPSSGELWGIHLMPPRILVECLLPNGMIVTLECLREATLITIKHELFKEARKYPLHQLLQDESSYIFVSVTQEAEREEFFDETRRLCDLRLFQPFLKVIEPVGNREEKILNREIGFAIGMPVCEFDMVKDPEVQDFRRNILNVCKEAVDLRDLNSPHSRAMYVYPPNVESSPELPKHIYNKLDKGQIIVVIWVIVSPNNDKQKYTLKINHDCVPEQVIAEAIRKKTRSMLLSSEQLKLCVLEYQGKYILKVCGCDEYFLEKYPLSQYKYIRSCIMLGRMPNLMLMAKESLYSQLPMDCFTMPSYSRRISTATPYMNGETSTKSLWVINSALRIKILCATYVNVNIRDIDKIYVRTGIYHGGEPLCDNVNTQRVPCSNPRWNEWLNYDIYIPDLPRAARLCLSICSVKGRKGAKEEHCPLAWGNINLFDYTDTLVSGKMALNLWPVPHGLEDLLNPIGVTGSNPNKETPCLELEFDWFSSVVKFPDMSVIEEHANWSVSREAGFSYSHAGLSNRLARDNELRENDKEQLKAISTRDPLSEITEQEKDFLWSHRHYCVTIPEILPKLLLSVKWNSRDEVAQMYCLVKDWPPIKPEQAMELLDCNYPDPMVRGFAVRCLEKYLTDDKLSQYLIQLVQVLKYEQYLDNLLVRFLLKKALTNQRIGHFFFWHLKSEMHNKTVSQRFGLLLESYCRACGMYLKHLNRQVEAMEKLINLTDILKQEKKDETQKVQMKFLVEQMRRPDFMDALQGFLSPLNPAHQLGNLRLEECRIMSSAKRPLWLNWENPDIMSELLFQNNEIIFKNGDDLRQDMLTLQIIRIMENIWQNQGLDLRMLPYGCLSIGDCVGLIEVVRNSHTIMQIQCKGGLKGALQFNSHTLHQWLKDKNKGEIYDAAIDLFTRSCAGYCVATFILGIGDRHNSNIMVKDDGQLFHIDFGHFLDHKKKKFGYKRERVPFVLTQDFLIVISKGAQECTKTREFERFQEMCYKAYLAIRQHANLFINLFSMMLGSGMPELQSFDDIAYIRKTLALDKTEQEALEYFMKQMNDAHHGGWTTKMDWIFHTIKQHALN
METHOD_NOTES: Inhibition of PI3Kalpha kinase

COc1cc(-c2csc(-c3ccnc(N4CCOCC4)n3)n2)cc(OC)c1O > 10 µM
COc1cc(-c2cn(-c3nc(N4CCOCC4)nc(N4CCOCC4)n3)cn2)cc(OC)c1O > 10 µM
COc1cc(-c2ccc(-c3cc(N4CCOCC4)nc(N4CCOCC4)n3)o2)cc(OC)c1O > 10 µM

// query Identify IC50 associated with the compound COc1cc(-c2ccc(-c3ccnc(N4CCOCC4)n3)o2)cc(OC)c1O
// result > 10 µM

// query Identify IC50 associated with the compound COc1cc(/C=N/Nc2nc(N3CCOCC3)nc(N3CCOCC3)n2)cc(OC)c1O
// result > 10 µM
